Molecular target: T1, monkey CEA expressed on CHO cell surface (cynomolgus monkey)
T1 construct: also called cynoCEA-CHO; monkey CEA proteins on the cell surface
T1 chain: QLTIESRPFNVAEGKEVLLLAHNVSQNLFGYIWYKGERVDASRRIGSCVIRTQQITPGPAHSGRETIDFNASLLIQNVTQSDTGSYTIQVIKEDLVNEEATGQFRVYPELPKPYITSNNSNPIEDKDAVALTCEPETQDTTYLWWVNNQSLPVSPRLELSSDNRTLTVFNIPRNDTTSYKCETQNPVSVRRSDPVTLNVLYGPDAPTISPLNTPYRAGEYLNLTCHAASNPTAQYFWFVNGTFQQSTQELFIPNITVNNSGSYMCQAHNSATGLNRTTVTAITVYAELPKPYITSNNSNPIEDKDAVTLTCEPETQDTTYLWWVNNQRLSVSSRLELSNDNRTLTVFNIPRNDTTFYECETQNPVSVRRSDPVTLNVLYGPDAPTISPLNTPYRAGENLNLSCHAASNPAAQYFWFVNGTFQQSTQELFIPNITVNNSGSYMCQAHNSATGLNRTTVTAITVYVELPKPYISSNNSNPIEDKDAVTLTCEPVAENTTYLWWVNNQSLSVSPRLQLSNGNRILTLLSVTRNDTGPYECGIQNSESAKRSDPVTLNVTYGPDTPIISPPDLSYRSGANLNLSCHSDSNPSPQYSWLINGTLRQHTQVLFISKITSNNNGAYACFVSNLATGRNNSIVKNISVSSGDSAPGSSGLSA
Test: FACS, cynoCEA-CHO cells
Description: In order to detect the binding of the antibody to the CEA protein on the cell surface, the binding activity of the antibody was determined by FACS using cells expressing CEA on the cell surface. Cells were harvested and centrifuged at 400 g at 4° C. for 5 min. […] The plate was analyzed by a flow cytometer (BD, FACSverse) for fluorescence signal values.
pEC50: −log10 of the molar value.
Listed below: pEC50 values for each entry.

| binder | pEC50 |
| --- | --- |
| Hu63-9 (antibody, human IgG1, kappa, V domains shown) VH: EVQLVQSGAEVKKPGASVKVSCKASGYTFTDFYMNWVRQAPGQGLEWIGDIFPKNGNTDYNRKFKDRATLTVDKSTSTVYMEFSSLRSEDTAVYYCARSGYGNYVFDYWGQGTLVTVSS VL: DVQMTQSPSSLSASVGDRVTITCRTSQDINIYLNWYQQKPGGAVKLLIYYRSGLLSGVPSRFSGSGSGTDYTLTISSLQPEDFATYYCQQGNTLPPTFGGGTKVEIKR | 8.61 |
| Hu67-4 (antibody, human IgG1, kappa, V domains shown) VH: EVQLVQSGAEVKKPGASVKVSCKASGYTFTDYHMNWVRQAPGQRLEWMGDINPDIGGTSYNQNFKGRVTITRDTSASTAYMELSSLRSEDTAVYYCARWDFDSFANWGQGTLVTVSS VL: DIQMTQSPSSLSASVGDRVTITCRASESVSIIGTNLIHWYQQKPGKAPKLLIYHASNLETGVPSRFSGSGSGTDFTLTISSLQPEDFATYYCLQSRKIPYTFGGGTKVEIKR | 8.51 |
| Hu103-1 (antibody, human IgG1, lambda, V domains shown) VH: EVQLVQSGSELKKPGASVKVSCKASGYTFTTYGVIWVRQAPGQGLEWMGWINTYSGVPTYADDFKGRFVFSLDTSVSTAYLQISSLKAEDTAVYYCARKKTLTTVTPWFAYWGQGTLVTVSS VL: ELVLTQSPSASASLGASVKLTCTLSSQHSTYTIEWHQQQPEKGPRYLMELKKDGSHSTGDGIPDRFSGSSSGAERYLTISSLQSEDEADYYCGVGNTIKEQFVYVFGGGTKLTVLG | 8.60 |

Data origin, for the record: patent US20230055408A1
